Test: Dissociation constant against folic acid receptor (FAR); Value ranges from 0.1-1 nM
Parameters: species or system Homo sapiens
measuredQuantity: Kd (nM)
Entry rule: numbers only, all in nM.

Request: I would be grateful if you could share the reported Kd for Nc1nc(=O)c2nc(CNc3ccc(C(=O)N[C@@H](CCC(=O)O)C(=O)O)cc3)cnc2[nH]1 [FOLIC ACID] .
Result: 1
